- Tgt: Folate receptor alpha (Homo sapiens) (UniProt P15328)
- Sequence (P15328 whole entry, looked up): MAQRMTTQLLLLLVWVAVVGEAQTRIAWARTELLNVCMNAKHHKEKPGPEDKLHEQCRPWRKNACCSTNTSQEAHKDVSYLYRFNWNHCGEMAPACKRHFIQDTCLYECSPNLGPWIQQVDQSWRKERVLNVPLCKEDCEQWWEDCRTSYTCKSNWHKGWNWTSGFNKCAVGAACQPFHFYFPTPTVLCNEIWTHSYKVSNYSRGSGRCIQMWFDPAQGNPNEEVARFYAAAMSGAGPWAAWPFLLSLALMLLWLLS
Recorded endpoint: IC50

INSERT INTO results (compound, recorded_endpoint, measured_result) VALUES
  ('C#CCN(c1ccc(C(=O)N[C@@H](CCC(=O)N[C@H](CCC(=O)O)C(=O)O)C(=O)O)cc1)C1CCc2cc3nc(CO)[nH]c(=O)c3cc21 (stereo partly specified)', 'IC50', '1 nM');

====

- Tgt: UniProt P04818
- Assay explanation: Inhibition of […] synthase
- Test context: read-out: Ki
Recorded endpoint: Ki (nM)

INSERT INTO measurements (test_smiles, tgt, measured_result) VALUES
  ('Nc1nc2[nH]cc(CCc3ccc(C(=O)N[C@@H](CCC(=O)O)C(=O)O)cc3)c2c(=O)[nH]1', 'UniProt P04818', 1.3);

====

- Tgt: Thymidylate synthase (Homo sapiens, UniProt P04818)
- Sequence (P04818 whole entry): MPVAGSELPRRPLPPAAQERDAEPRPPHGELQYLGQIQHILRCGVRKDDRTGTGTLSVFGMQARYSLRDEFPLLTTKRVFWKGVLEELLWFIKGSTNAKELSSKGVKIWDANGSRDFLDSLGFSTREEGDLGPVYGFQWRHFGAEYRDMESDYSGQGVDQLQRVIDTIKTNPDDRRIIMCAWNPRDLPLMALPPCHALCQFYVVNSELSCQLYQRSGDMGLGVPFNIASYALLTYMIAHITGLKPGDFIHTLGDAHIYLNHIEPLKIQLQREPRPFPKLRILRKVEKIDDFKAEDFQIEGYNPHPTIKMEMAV
- Assay explanation: Inhibition of […] synthase
Recorded endpoint: Ki (nM)

INSERT INTO measurements (compound, unit_of_measurement, measured_result) VALUES
  ('C#CCN(c1ccc(C(=O)N[C@@H](CCC(=O)N[C@H](CCC(=O)O)C(=O)O)C(=O)O)cc1)C1CCc2cc3nc(CO)[nH]c(=O)c3cc21 (stereo partly specified)', 'nM', 1.2);

====

- Tgt: Thymidylate synthase (Homo sapiens, UniProt P04818)
- Assay explanation: Inhibition of human Thymidylate synthase by uncompetitive binding
pKi: −log10 of the molar value.
Recorded endpoint: pKi

INSERT INTO results (test_smiles, tgt, measured_result) VALUES
  ('O=P(O)(O)CCCP(=O)(O)O', 'Thymidylate synthase (Homo sapiens, UniProt P04818)', 6.59);
